target: human TRPC6 (Homo sapiens, UniProt Q9Y210); assay: TRPC6 calcium flux assay (FLIPR, OAG-stimulated calcium influx); details: HEK293 cells stably transfected with human TRPC6, read-out: hTRPC6 Potency
Sequence (Q9Y210 whole entry): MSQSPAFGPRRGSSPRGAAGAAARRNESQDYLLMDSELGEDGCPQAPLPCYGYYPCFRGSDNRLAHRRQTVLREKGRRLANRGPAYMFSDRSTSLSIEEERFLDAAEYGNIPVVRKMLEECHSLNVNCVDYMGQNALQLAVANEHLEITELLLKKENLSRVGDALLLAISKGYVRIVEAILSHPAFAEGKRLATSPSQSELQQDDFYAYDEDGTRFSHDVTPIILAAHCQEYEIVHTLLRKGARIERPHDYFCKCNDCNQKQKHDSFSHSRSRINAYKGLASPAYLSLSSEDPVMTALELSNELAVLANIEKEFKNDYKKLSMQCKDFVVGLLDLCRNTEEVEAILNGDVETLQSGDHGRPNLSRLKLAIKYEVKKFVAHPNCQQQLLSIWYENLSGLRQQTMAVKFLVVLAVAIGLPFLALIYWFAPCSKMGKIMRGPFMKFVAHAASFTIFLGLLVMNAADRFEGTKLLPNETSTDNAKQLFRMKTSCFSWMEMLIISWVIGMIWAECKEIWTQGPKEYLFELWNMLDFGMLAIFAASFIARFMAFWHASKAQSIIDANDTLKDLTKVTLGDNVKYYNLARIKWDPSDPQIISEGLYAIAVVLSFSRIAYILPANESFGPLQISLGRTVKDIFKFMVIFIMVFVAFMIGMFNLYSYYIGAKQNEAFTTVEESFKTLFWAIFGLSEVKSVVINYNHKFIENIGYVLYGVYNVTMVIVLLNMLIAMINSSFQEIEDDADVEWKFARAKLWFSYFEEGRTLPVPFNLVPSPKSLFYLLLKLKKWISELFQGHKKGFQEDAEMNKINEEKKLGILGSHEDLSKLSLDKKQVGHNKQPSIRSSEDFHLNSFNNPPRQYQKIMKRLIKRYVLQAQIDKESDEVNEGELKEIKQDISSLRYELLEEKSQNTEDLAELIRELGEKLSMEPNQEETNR
Value Type: IC50
Write your answer as a measured quantity: the number, then the unit.

Compound	IC50
N[C@@H]1CCCN(c2nc3ccccc3n2Cc2ccc(Cl)cc2Cl)C1	1120 nM
N#Cc1ccc(Cn2c(N3CCC(F)(F)[C@H](N)C3)nc3ccc(C#N)cc32)nc1	3.97 nM
N#Cc1ccc(Cn2c(N3CC[C@@H](F)[C@H](N)C3)nc3c(Cl)cccc32)cc1	0.924 nM
N#Cc1cc(F)cc2c1nc(N1CC[C@@H](F)[C@H](N)C1)n2Cc1ncc(F)cn1	6.92 nM
N[C@@H]1CN(c2nc3cc(F)c(F)cc3n2CC(=O)N2CC3CC2CO3)CC[C@H]1F (some centres unmarked)	57.4 nM

Record IC50 per entry; entries follow.
1. N#Cc1ccc(Cn2c(N3CC[C@H](O)[C@H](N)C3)nc3ccc(Cl)cc32)nc1
2. N#Cc1cc(Cl)ccc1Cn1c(N2CC[C@@H](F)[C@H](N)C2)nc2cc(F)c(F)cc21
3. COc1ccc2c(c1)nc(N1CCC(F)(F)[C@H](N)C1)n2Cc1ccc(C#N)cn1

Solution:
["72 nM", "0.704 nM", "36.2 nM"]

---

target: human TRPC6 (Homo sapiens, UniProt Q9Y210); test: TRPC6 calcium flux assay (FLIPR, OAG-stimulated calcium influx); conditions: HEK293 cells stably transfected with human TRPC6, read-out: hTRPC6 Potency
pIC50: −log10 of the molar value. Structures can show the parent of a compound that is named as a salt.
Quick rule for you: pIC50 at 8 or higher means class 1, lower means class 0.

Examples from the recorded data:
Molecule	Experimental System	Class
N[C@@H]1CN(c2nc3cc(F)c(F)cc3n2Cc2ccc(Cl)cc2Cl)CC[C@H]1F	human TRPC6 (Homo sapiens, UniProt Q9Y210)	class 0
N#Cc1ccc(Cn2c(N3CC[C@@H](F)[C@H](N)C3)nc3ccc(OC(F)F)cc32)nc1	human TRPC6 (Homo sapiens, UniProt Q9Y210)	class 1

Exercise: Does N#Cc1ccc(Cn2c(N3C[C@H]4C[C@@]4(CN)C3)nc3ccccc32)cc1 have a reported pIC50 of at least 8?
Solution: class 0

Exercise: Answer whether pIC50 of N#Cc1ccc(Cn2c(N3CCC[C@@H](N)C3)nc3ccccc32)cn1 [Example 292, 2,2,2-trifluoroacetate] is greater than or equal to 8.
Solution: class 0

Exercise: Test whether the molecule CN[C@H]1CCCN(c2nc3cc(C(F)(F)F)ccc3n2Cc2ccc(C#N)cn2)C1 records pIC50 of 8 or higher.
Solution: class 0

Exercise: State whether the measured pIC50 reaches 8, counting equality as reaching it, for N#Cc1ccc(Cn2c(N3CC[C@@H](F)[C@H](N)C3)nc3ccccc32)nc1
Solution: class 1

Exercise: Does the reported pIC50 for N#Cc1cnc(Cn2c(N3CC[C@@H](F)[C@H](N)C3)nc3ccccc32)cn1 fall at or above the 8 mark?
Solution: class 1

Exercise: Determine whether measured pIC50 meets or exceeds 8 for C[C@@H](c1ccc(Cl)cn1)n1c(N2CC[C@@H](F)[C@H](N)C2)nc2cc(Cl)ccc21 [Example 220, hydrochloride]
Solution: class 1

Exercise: Check this molecule for pIC50 at or above 8: N#Cc1ccc(Cn2c(N3CCC[C@H](N)C3)nc3ccc(F)cc32)nc1 [Example 45, hydrochloride]
Solution: class 1

Exercise: Check this molecule for pIC50 at or above 8: N#Cc1ccc(Cn2c(N3C[C@@H]4NCCO[C@H]4C3)nc3ccccc32)nc1
Solution: class 0

Exercise: Please tell me: is the molecule CC1(C#N)CCN(C(=O)Cn2c(N3CC[C@@H](F)[C@H](N)C3)nc3cc(F)c(F)cc32)CC1 at or over 8 in terms of pIC50?
Solution: class 0

Exercise: Check this molecule for pIC50 at or above 8: N[C@H]1CCCN(c2nc3ccccc3n2Cc2ccc(Cl)cc2)C1 [Example 316, hydrochloride]
Solution: class 1

Exercise: # check: pIC50 of CN[C@@H]1CN(c2nc3c(F)cc(F)cc3n2[C@@H](C)c2ccc(C#N)cn2)CC[C@H]1F (single isomer, unassigned) is greater than or equal to 8
Solution: class 0

Exercise: // inclusive: pIC50 at least 8? input: CN[C@@H]1CN(c2nc3c(F)cc(F)cc3n2[C@H](C)c2ccc(C#N)cn2)CC[C@H]1F (single isomer, unassigned)
Solution: class 0

---

molecular target: human TRPC6 (Homo sapiens); assay: TRPC6 calcium flux assay (FLIPR, OAG-stimulated calcium influx); conditions: HEK293 cells stably transfected with human TRPC6, read-out: hTRPC6 Potency
Value Type: log10(IC50) (log10 of the value in µM)
Form field - Quantity: IC50; Unit: µM; Scale: log10

Sample answers from the record:
Molecule	Recorded Result
N[C@@H]1CN(c2nc3cc(Br)ccc3n2CC(=O)N2CCC2)CC[C@H]1F	-0.66
CC1COCC(C)N1C(=O)Cn1c(N2CC[C@@H](F)[C@H](N)C2)nc2ccc(F)cc21 (stereo partly shown)	-0.54
C[C@H](c1ccc(C#N)cc1)n1c(N2CCC[C@@H](N)C2)nc2ccccc21	-1.06
CCN(C)C(=O)Cn1c(N2CC[C@@H](F)[C@H](N)C2)nc2cc(F)c(F)cc21	-2.10
N#Cc1ccc(Cn2c(N3CCC(F)(F)[C@H](N)C3)nc3cc(F)cc(F)c32)nc1	-0.57

Batch request: log10(IC50) for each of the following molecules.
1. N#Cc1cccc(Cn2c(N3CCC[C@@H](N)C3)nc3ccccc32)c1
2. N#Cc1ccc(Cn2c(N3CC[C@@H](F)[C@H](N)C3)nc3ccccc32)cc1

Solution:
1. 1.22
2. -2.86

---

Assign pIC50 to each entry below.
molecular target: human TRPC6 (Homo sapiens, UniProt Q9Y210); test: TRPC6 calcium flux assay (FLIPR, OAG-stimulated calcium influx); details: HEK293 cells stably transfected with human TRPC6, read-out: hTRPC6 Potency
Structures can show the parent of a compound that is named as a salt.
Give bare numbers, as −log10 of the molar value.

Compound	Recorded Result
N[C@@H]1CN(c2nc3cc(F)c(F)cc3n2C2CCN(c3ccc(Cl)cc3)C2=O)CC[C@H]1F (mixture of isomers)	7.97
CN[C@H]1CCCN(c2nc3ccccc3n2Cc2ccc(F)cn2)C1	6.39
Cc1cnc(Cn2c(N3CC[C@@H](F)[C@H](N)C3)nc3cc(F)c(F)cc32)o1	7.40
N#Cc1ccc(Cn2c(N3CCC[C@H](N)C3)nc3cc(Cl)ccc32)nc1	8.49
N[C@@H]1CN(c2nc3ccccc3n2CC(=O)N2CCC2)CC[C@H]1F	6.16

// batch mode: one pIC50 value per listed entry
1. N#Cc1cc(Cl)ccc1Cn1c(N2CCC[C@@H](N)C2)nc2ccccc21
2. N[C@@H]1CN(c2nc3cc(F)c(F)cc3n2Cc2ccc(F)cn2)CC[C@H]1F [Example 228, hydrochloride]
3. N#Cc1ccc(Cn2c(N3CCC4CCN[C@H]4C3)nc3ccccc32)nc1 (some centres unmarked)

Solution:
1. 5.80
2. 9.49
3. 6.79

---

target: human TRPC6 (Homo sapiens, UniProt Q9Y210); experiment: TRPC6 calcium flux assay (FLIPR, OAG-stimulated calcium influx); conditions: HEK293 cells stably transfected with human TRPC6, read-out: hTRPC6 Potency
pIC50: −log10 of the molar value. Structures can show the parent of a compound that is named as a salt.
// bucketize pIC50: LOW (below 7), MEDIUM (7 to below 9), HIGH (9 or more)

Exercise: Hello team, could you let me know which band the following molecule falls into: N[C@@H]1CN(c2nc3c(F)cc(F)cc3n2Cc2ncc(Cl)cn2)CC[C@H]1F
Solution: HIGH

Exercise: Determine which band this molecule sits in: C[C@@H](c1ccc(C#N)cn1)n1c(N2CC[C@@H](F)[C@H](N)C2)nc2ccc(C#N)cc21 [Example 225, hydrochloride]
Solution: MEDIUM

Exercise: Could you place N[C@@H]1CN(c2nc3cc(F)c(F)cc3n2CC(=O)N(CC(F)F)C2CC2)CC[C@H]1F in its proper category? Many thanks.
Solution: LOW

Exercise: Consider COc1cnc(Cn2c(N3CC[C@@H](F)[C@H](N)C3)nc3cc(F)ccc32)nc1 . To which pIC50 class does it belong?
Solution: MEDIUM

Exercise: Kindly state the category for this molecule: CO[C@H]1CCN(c2nc3ccc(F)cc3n2Cc2ccc(C#N)cn2)C[C@H]1N
Solution: MEDIUM

Exercise: Where would N#Cc1ccc(Cn2c(N3CC[C@@H](F)[C@H](N)C3)nc3cc(C(F)(F)F)c(Cl)cc32)nc1 land among the classes by reported pIC50?
Solution: HIGH

Exercise: Place this molecule in its band: CCN(C(=O)Cn1c(N2CC[C@@H](F)[C@H](N)C2)nc2cc(F)c(F)cc21)C1CCS(=O)(=O)C1 (mixture of isomers)
Solution: LOW

Exercise: Form: Item = N#Cc1ccc(Cn2c(N3CC[C@H](F)[C@@H](N)C3)nc3ccccc32)cc1 ; Class = ?
Solution: MEDIUM

Exercise: Categorize the following entry: CN(CC(F)(F)F)C(=O)Cn1c(N2CC[C@@H](O)[C@H](N)C2)nc2ccc(F)cc21
Solution: LOW

Exercise: Bin? COc1cc(F)cc2nc(N3CC[C@@H](F)[C@H](N)C3)n(CC(=O)N3CCOCC3)c12
Solution: LOW
